Test Summary: S. cerevisiae growth inhibition in restrictive medium, OD615, pilot screen, restrictive growth control, yeast lifespan reduction project (AID 706);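 note: modified DeaD lifespan yeast strain shifted to restrictive glucose medium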
Experimental Parameters: OD615, 48 h, at 10 µM, stronger effect = higher value
Quantity: growth inhibition (%)
Write the answer as a number in %, unit excluded.

// worked examples, growth inhibition included
Molecule | Quantity Unit | growth inhibition
COc1cccc(OCC(=O)N2CCN(C)CC2)c1 | % | 11.5
O=c1cccc2n1CC1CC2CN(C(c2cccc(F)c2)c2sc3ncnn3c2O)C1 (centres undefined) | % | -4.42
C=Cn1ccnc1P(=S)(c1c(C)nn(-c2ccccc2)c1C)c1nccn1C=C | % | 13.2
O=C(Cc1ccc(Br)cc1)N1CCN(Cc2ccccc2)CC1 | % | -2.88
O=c1c2ccccc2nc(-c2ccco2)n1-c1ccccn1 | % | -7.09

Query block: Form field: reported growth inhibition of O=C(CN1CC(c2ccccc2)CC1=O)Nc1cccc(F)c1 (centres undefined)
Result block: -5.42

Query block: Further, for CCOC(=O)c1c(C)n(Cc2ccco2)c2ccc(OC)cc12 ?
Result block: 0.26

Query block: Proceed to Cn1c(O)c(C=NCCOc2ccc(Cl)cc2)c(=O)n(C)c1=O
Result block: 0.245

Query block: Input CCc1sc(C(=O)N2CCC3(CC2)OCCO3)cc1Br
Result block: -12.2

Query block: Follow-up item: CC(=O)Nc1ccc(OC(=O)c2ccccc2N)cc1
Result block: -9.05

----------
Measured inhibition, listed per entry for reference.
System Name: Pantothenate synthetase (Mycobacterium tuberculosis (strain ATCC 25618 / H37Rv)) (UniProt P9WIL5)
Sequence (P9WIL5 whole entry, looked up): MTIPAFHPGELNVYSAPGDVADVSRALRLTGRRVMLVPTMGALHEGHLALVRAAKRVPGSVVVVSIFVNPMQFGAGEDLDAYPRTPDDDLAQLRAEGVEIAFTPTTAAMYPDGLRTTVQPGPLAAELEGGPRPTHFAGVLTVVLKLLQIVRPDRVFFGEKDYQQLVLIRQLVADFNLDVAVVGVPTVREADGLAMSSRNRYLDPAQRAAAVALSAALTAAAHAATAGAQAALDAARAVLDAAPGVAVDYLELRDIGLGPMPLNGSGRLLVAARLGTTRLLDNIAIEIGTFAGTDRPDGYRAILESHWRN
Test Summary: Coupled enzyme confirmation of inhibitors against recombinant Mtb PanC (AID 375);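 note: 0% = full reaction with vehicle and 100% = no enzyme background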
Experimental Parameters: coupled enzyme assay; at 10 µM, stronger effect = higher value
// note: answer is a bare numeric in %

Molecule | Quantity Unit | inhibition
CCCC(=O)N1c2ccccc2NC2=C(C(=O)CCC2)C1c1ccc(F)cc1 (stereo unspecified) | % | 5
COc1ccc(C(=O)Nc2nncs2)c(OC)c1 | % | 3
Cc1onc(-c2c(Cl)cccc2Cl)c1C(=O)NCCN1CCOCC1 | % | 6
O=S(=O)(NCc1ccc(Cl)cc1)c1cnc[nH]1 | % | 0
CC(=O)Nc1ccc(NC(=O)Cn2cnc3c(cnn3C(C)(C)C)c2=O)cc1 | % | 3

Query block: I am curious: what inhibition value has been reported for Cc1cc2nc3c(nc2cc1C)C1(C(=O)O)CCC3(C)C1(C)C (stereo unspecified) ?
Result block: 0

Query block: Please answer likewise for OCCN1CCN(CC(O)COc2ccc3ccccc3c2)CC1 (stereo unspecified)
Result block: 0

Query block: CC1CCCN(C(=O)CN2C(=O)c3ccccc3C2=O)C1 (stereo unspecified) ?
Result block: 3

Query block: Query CC(c1nnc(SCC(=O)Nc2sccc2C#N)n1-c1ccc(Cl)cc1)N(C)C (stereo unspecified) next
Result block: 0

Query block: Okay, and Cc1ccc(C2c3sc(=O)[nH]c3SC3C(=O)NC(=O)C32)cc1 (stereo unspecified) ?
Result block: 0

Query block: Param item: CC(=O)Nc1cc2c(nc1C)nc(C)n2Cc1ccc(Br)cc1
Result block: 0

----------
Parameter inhibition: see the listing below.
System Name: Pantothenate synthetase (Mycobacterium tuberculosis (strain ATCC 25618 / H37Rv)) (UniProt P9WIL5)
Test Summary: Coupled enzyme confirmation of inhibitors against recombinant Mtb PanC (AID 375);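 note: 0% = full reaction with vehicle and 100% = no enzyme background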
Experimental Parameters: coupled enzyme assay; at 10 µM, stronger effect = higher value
Could you give me the number in %? Just the number is fine.

Examples with their reported inhibition follow.
Molecule | inhibition [%]
CN(C)C(=O)c1ccc(COc2ccccc2Br)o1 | 0
CCCn1c2ccccc2c2nnc(SCC(=O)OCC)nc21 | 6
COc1ccccc1Nc1nc(N)nc(CN2CCN(c3ccccc3F)CC2)n1 | 0
COc1ccc(-c2nc(C#N)c(NCCCN(C)C)o2)cc1OC | 0
CC1CC(C)CN(CCCNC(=O)COc2cc(=O)n(C)c3ccccc23)C1 (stereo unspecified) | 0
CC(C(N)=O)N1C(=O)C2C3C=CC(C3)C2C1=O (stereo unspecified) | 2

Query block: I have this molecule here, Cc1cccc(NC(=O)Nc2cccc(C#N)c2)n1 , and I need its recorded inhibition.
Result block: 1

Query block: Further, for Cc1c(NC(=O)C2CCCCN2S(=O)(=O)c2ccc(Cl)cc2)c(=O)n(-c2ccccc2)n1C (stereo unspecified) ?
Result block: 0

Query block: Then this molecule: Cc1ccc(NC(=O)CSc2nnc(Cc3cccn3C)n2-c2ccc(F)cc2)cc1
Result block: 6

Query block: // repeat for N#Cc1ccccc1Cn1cc(C(=O)C2CC2)c2ccccc21 and report
Result block: 0

Query block: Proceed to CCN1CCN(CCCNC(=O)C2c3ccccc3C(=O)N(C)C2c2ccc(OC)cc2)CC1 (stereo unspecified)
Result block: 0

Query block: Query COc1cc(NC(=O)Cc2nn(C)c(=O)c3ccccc23)cc(OC)c1 next
Result block: 0

----------
Test Summary: growth suppression of yeast trafficking mutant, preliminary HTS, modulators of trafficking downstream of Golgi apparatus project, 1536-format plate, OD 615 nm (AID 637)
Experimental Parameters: yeast transport mutant growth, absorbance 615 nm, 18 h; stronger effect = higher value
Quantity: inhibition (%)
Answer in %, number only, no unit symbol.

Sample records with inhibition:
Molecule | inhibition (%)
Cn1c(C(=O)N2CCC3(CC2)OCCO3)cc2c(=O)n(C)c3ccccc3c21 | -5.45
COC(=O)c1cncn1C(C)c1ccccc1 (stereo unspecified) | -5.25
COc1cc(/C=N/n2cnnc2)ccc1OC(=O)N(C)C | -2.06

Query block: Given the molecule CC(CCc1ccccc1)NC(C)C(O)c1ccc(O)cc1 (stereo unspecified) , what is its reported inhibition?
Result block: -3

Query block: What do you get for Nc1ccc(C2(c3ccc(N)cc3)CN3CCC2CC3)cc1 ?
Result block: 0

Query block: Here is the next molecule: Cc1ccc(C(=O)C2CN3CCC2CC3)cc1 (stereo unspecified)
Result block: 4.5

Query block: Next up: CC(=O)[C@@]1(O)CC[C@H]2[C@@H]3CC=C4C[C@@H](O)CC[C@]4(C)[C@H]3CC[C@@]21C
Result block: 4.33

Query block: How about CC(=O)C1C(=O)NC23CCCCC2C1c1ccccc1O3 (stereo unspecified) ?
Result block: -0.16

Query block: Then NCC(CC(=O)O)c1ccc(Cl)cc1 (stereo unspecified) ?
Result block: 4.67

Query block: Entry to check: CCCNC(=O)c1c(N)n(Cc2ccc3c(c2)OCO3)c2nc3ccccc3nc12
Result block: 0.66

Query block: Also need Cn1c(=O)cc(SCC(=O)N2CCC3(CC2)OCCO3)c2ccc(Cl)cc21 , thanks.
Result block: 1.77

----------
System Name: Pantothenate synthetase (Mycobacterium tuberculosis (strain ATCC 25618 / H37Rv)) (UniProt P9WIL5)
Test Summary: Coupled enzyme confirmation of inhibitors against recombinant Mtb PanC (AID 375);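 note: 0% = full reaction with vehicle and 100% = no enzyme background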
Experimental Parameters: coupled enzyme assay; at 10 µM, stronger effect = higher value
Recorded measurements of inhibition, one per entry
Dear colleague, please return just the value in %, with no unit written.

These recorded examples may help you get a feel for the data.
Smiles Code | inhibition [%]
CN(C)Cc1c(O)ccc2oc(Cc3ccccc3)cc12 | 8
Cc1ccc(-c2cc(C(=O)NCc3ccc4c(c3)OCO4)no2)cc1 | 0
O=C(OCc1ccccc1F)c1ccc2c(c1)OCCO2 | 3
CCS(=O)(=O)N1CCC(C(=O)NCc2cccs2)CC1 | 2

Query block: Give its inhibition value. Item: O=C(COc1ccc(S(=O)(=O)NC2CCCCC2)cc1)NCc1ccccn1
Result block: 0

Query block: Now give it for Cc1cc(C)cc(NS(=O)(=O)c2ccc3[nH]cc(C(=O)NCc4ccco4)c(=O)c3c2)c1 too.
Result block: 0

----------
Test Summary: HUVEC growth inhibition – cell-based, human, primary screen (AID 575);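 note: 100% = median of untreated cell wells with 0.1% DMSO on each plate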
Experimental Parameters: HUVEC proliferation, CellTiter-Glo luminescence, 72 h; at 10 µM; stronger effect = lower value
Flag rule - viability less than 90% flags criterion met; the remaining entries get criterion not met.

Some solved entries appear below for comparison.
Compound | Group Label
CC#CP(=O)(OCC)C(O)(c1ccccc1)C(F)(F)F (centres undefined) | criterion not met
CCCCn1c(C)c(C(=O)OCC)c2c(CN3CCOCC3)c(O)ccc21 | criterion met

Query block: Below 90% on viability? Entry CC(C)[C@H]1C(=O)N2CCC[C@H]2[C@]2(O)O[C@](NC(=O)[C@@H]3C=C4c5cccc6[nH]cc(c56)C[C@H]4N(C)C3)(C(C)C)C(=O)N12
Result block: criterion met

Query block: Also, NC(=O)OCCSc1nnc(-c2cccc(C(N)=S)c2)o1 please.
Result block: criterion not met

----------
Test Summary: MRP1 drug-resistance reversers in H69AR cells – cell-based, doxorubicin co-treatment, pilot screen (AID 601)
Experimental Parameters: H69AR cells, CellTiter-Glo, 72 h; compound alone cytotoxicity; at 10 µM
Quantity: viability (%)
Response body: numeric value in %, unit text excluded.

Worked examples, 5 compounds total:
Compound | Quantity | Quantity Unit | Experimental Value
COC(=O)C1C2c3ccccc3OC1(C)N=c1s/c(=C/c3cnn(C)c3C)c(=O)n12 (stereo unspecified) | viability | % | 91.8
COc1ccc(CN2CCN(c3ccccc3F)CC2)c(OC)c1 | viability | % | 128
CCn1nc(-c2ccccc2)nc2c(=O)n(C)c(=O)nc1-2 | viability | % | 1.38
COc1ccc(OC)c(N2C(=O)NC(=O)C(CCc3ccncc3)(CCc3ccncc3)C2=O)c1 | viability | % | 82.8
CC(=O)C1C(=O)NC23CCCCC2C1c1ccccc1O3 (stereo unspecified) | viability | % | 99.3

Query block: Tell me the measured viability of COc1ccc(OC)c([C@@H](O)[C@H](C)NC(C)(C)C)c1 , please.
Result block: 97.5

Query block: Item: CCCC(=O)OCC[N+](C)(C)C
Result block: 101

Query block: Please give the result for CC(C)(C)OC(=O)c1c(N)n(Cc2ccco2)c2nc3ccccc3nc12 too.
Result block: 65.4

Query block: // same read-out, input: O=C(O)Cn1cc(C(=O)c2ccccc2)c2ccccc21
Result block: 94.7

Query block: Again, but for COc1cc(/C=N/n2cnnc2)ccc1OC(=O)N(C)C
Result block: 102

Query block: Ok, now CCOc1cc2[nH]c(=S)n(CCCC(=O)N3CCC4(CC3)OCCO4)c(=O)c2cc1OCC
Result block: 89.2
